The compounds below have reported Ki for GABA-AT (Sus scrofa).
measure.name: Ki (mM)

1: N[C@H]1C[C@@H](C(=O)O)CC1=C(C(F)(F)F)C(F)(F)F
2: N[C@H]1CC(C(=O)O)=CC1(F)F
input: Could you tell me which of these two has the smaller Ki figure? First: 1 Second: 2 Response format: the label of the selected entry.
output: 2
(2: 1.34 mM, 1: 5.16 mM)

---

study.system: CYP 2D6 (Homo sapiens)
Sequence (P10635 whole entry): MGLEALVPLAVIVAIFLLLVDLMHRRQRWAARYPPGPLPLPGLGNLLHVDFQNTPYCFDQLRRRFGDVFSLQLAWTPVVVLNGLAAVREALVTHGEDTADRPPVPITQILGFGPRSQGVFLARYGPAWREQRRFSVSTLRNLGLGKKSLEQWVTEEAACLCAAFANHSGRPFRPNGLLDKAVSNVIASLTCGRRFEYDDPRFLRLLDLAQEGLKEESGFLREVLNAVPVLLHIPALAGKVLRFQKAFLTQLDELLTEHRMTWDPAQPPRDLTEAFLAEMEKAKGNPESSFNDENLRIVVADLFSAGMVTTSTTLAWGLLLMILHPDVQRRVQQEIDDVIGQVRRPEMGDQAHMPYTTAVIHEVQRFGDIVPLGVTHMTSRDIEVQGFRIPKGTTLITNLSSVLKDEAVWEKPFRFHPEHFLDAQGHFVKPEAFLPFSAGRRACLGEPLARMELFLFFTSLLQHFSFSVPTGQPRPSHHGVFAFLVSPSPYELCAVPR
test: CYP inhibition 2D6
Assay type: in vitro ADME
measure.name: IC50

Input N[C@H]1C=C(C(=O)O)CC1(F)F [SS-1-148] . Output IC50: > 100 µM
